test system: 186277-243-T-J2-PDC complex spheroid viability; test: Anticancer human tumor 186277-243-T-J2-PDC patient-derived colon adenocarcinoma cell line growth inhibition; settings: compound alone; run of 01/18/2022
pIC50: −log10 of the molar value.
result_type: pIC50

# lookup: pIC50 of NC1CCC(NC2CC2c2ccccc2)CC1 (stereo unspecified)
< 5.00

###

System: 186277-243-T-J2-PDC complex spheroid viability
Experiment: Anticancer human tumor 186277-243-T-J2-PDC cell line growth inhibition; active means viability on the fitted dose curve at most 10% of control; inactive means the rest;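 note: 7 day exposure to compounds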
Settings: second compound 10 µM; first compound 0.316 µM
From the text: Multicellular complex tumor spheroid response to LSD1 Inhibitor Iadademstat in combination with a variety of drugs and investigational agents in selected tumor cell lines The current study was undertaken to assess response to LSD1 inhibitors in combination with standard-of-care drugs and investigational agents in solid tumor complex spheroid models as well as in the K-562 leukemia. […] Compounds. […] If the clinical Cmax for an agent had not been determined, the highest concentration tested was 10 microM. […]
Could you please pick one outcome from this set? true (1) = active, false (0) = inactive

Before answering, review these 4 worked examples.
CC1COCCN1c1cc(-c2ccnn2C)c2ccnc(-c3ccn[nH]3)c2n1 (stereo not given) + NC1CCC(NC2CC2c2ccccc2)CC1 | false (0)
Nc1ncn(C2CC(O)C(CO)O2)c(=O)n1 (stereo not given) + NC1CCC(NC2CC2c2ccccc2)CC1 | false (0)
COc1cc(Nc2ncc3c(n2)-c2ccc(Cl)cc2C(c2c(F)cccc2OC)=NC3)ccc1C(=O)O + NC1CCC(NC2CC2c2ccccc2)CC1 | true (1)
COc1cc(Nc2ncc3c(n2)-c2ccc(Cl)cc2C(c2c(F)cccc2OC)=NC3)ccc1C(=O)O + NC1CC1c1ccc(-c2cccc(O)c2)cc1 | false (0)

Returns: the outcome recorded for O=C(c1cc(Cc2n[nH]c(=O)c3ccccc23)ccc1F)N1CCN(C(=O)C2CC2)CC1 + NC1CCC(NC2CC2c2ccccc2)CC1 in this assay.
false (0)

###

system: 186277-243-T-J2-PDC complex spheroid viability; assay: Anticancer human tumor 186277-243-T-J2-PDC cell line growth inhibition; settings: second compound 1 µM; first compound 0.0316 µM; stronger effect = lower value;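 note: 7 day exposure to compounds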;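 for viability, T/C: 100% = DMSO vehicle control viability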
Task for the reader: assign each of the following compounds its reported viability, T/C.
Answers are plain numbers, in %.

Solved entries:
CC(C)c1c(-c2ccccc2)nc2c(C#N)c[nH]n2c1=O + NC1CC1c1ccc(-c2cccc(O)c2)cc1 | 106
O=C(C=Cn1cnc(-c2cc(C(F)(F)F)cc(C(F)(F)F)c2)n1)NNc1cnccn1 + NC1CCC(NC2CC2c2ccccc2)CC1 | 19.3
COc1ccc([C@@H](O)c2cc(-c3ncnc4cc(N5CCOCC5)ccc34)c(F)cc2Cl)nn1 + NC1CCC(NC2CC2c2ccccc2)CC1 | 116
COc1cc(Nc2ncc3c(n2)-c2ccc(Cl)cc2C(c2c(F)cccc2OC)=NC3)ccc1C(=O)O + NC1CCC(NC2CC2c2ccccc2)CC1 | 11.3

Look at each compound and report its viability, T/C.
1. CC[C@@]1(O)C(=O)OCc2c1cc1n(c2=O)Cc2cc3c(CN(C)C)c(O)ccc3nc2-1 + NC1CCC(NC2CC2c2ccccc2)CC1
2. Cn1ncnc1C1c2n[nH]c(=O)c3cc(F)cc(c23)NC1c1ccc(F)cc1 (configuration not stated) + NC1CCC(NC2CC2c2ccccc2)CC1
3. COc1cc(Nc2ncc3c(n2)-c2ccc(Cl)cc2C(c2c(F)cccc2OC)=NC3)ccc1C(=O)O + NC1CC1c1ccc(-c2cccc(O)c2)cc1

103
99.6
130

All figures here come from PubChem BioAssay AID1918933.
